system-under-test: hNav1.5 (Homo sapiens, UniProt Q14524)
Construct: expressed in transfected cells; host or cells: HEK293
Sequence (Q14524 whole entry): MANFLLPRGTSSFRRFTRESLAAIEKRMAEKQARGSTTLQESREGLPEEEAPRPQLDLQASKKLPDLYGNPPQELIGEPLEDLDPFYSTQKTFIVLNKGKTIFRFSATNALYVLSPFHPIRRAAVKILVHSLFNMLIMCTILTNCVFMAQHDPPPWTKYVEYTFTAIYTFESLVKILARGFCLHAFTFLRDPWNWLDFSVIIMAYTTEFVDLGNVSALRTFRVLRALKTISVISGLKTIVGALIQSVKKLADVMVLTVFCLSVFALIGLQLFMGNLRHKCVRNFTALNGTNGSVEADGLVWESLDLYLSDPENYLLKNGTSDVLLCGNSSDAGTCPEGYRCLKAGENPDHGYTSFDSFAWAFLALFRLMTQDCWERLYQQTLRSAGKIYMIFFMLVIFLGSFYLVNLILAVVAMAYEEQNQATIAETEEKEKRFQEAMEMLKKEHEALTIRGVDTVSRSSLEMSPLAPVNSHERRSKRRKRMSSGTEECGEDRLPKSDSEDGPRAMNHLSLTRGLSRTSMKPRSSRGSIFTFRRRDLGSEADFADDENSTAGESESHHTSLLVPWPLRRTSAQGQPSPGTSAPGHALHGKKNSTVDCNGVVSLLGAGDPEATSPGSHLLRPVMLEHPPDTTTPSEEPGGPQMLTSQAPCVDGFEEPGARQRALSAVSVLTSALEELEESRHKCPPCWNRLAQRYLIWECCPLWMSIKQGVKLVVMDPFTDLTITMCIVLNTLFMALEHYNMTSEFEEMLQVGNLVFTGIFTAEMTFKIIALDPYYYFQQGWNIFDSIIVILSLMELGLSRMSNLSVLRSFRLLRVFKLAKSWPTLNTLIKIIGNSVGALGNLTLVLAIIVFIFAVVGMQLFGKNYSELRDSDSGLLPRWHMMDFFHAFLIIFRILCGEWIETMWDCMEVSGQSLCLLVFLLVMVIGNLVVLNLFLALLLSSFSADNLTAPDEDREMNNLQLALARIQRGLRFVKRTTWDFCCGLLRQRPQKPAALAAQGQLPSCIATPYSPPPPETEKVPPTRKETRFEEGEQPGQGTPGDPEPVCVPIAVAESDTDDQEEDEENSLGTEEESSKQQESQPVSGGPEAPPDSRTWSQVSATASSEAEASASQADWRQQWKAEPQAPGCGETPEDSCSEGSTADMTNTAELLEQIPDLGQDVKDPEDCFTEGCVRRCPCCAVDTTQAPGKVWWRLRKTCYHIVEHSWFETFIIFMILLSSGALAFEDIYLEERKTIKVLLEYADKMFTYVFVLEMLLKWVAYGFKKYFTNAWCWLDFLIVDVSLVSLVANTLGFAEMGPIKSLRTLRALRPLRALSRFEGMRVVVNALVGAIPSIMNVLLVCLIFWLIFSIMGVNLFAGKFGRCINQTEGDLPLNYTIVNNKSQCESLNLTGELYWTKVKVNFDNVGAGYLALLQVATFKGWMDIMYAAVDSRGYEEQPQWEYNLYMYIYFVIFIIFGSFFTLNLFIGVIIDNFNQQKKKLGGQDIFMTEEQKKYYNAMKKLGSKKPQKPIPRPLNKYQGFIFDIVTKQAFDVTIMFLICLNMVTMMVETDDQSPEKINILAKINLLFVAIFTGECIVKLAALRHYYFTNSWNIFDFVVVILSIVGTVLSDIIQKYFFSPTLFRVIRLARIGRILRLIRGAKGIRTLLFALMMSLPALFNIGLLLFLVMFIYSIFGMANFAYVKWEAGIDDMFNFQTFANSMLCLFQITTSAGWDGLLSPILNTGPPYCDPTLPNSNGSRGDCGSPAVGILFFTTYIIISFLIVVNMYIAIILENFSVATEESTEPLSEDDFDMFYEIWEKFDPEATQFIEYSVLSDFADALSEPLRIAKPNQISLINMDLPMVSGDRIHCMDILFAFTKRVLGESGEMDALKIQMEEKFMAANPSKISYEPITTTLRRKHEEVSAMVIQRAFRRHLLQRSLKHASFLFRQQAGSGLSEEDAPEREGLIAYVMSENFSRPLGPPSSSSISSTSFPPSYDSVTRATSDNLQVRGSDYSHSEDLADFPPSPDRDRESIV
test: Dissociation constants for resting (Kr) and inactivated (Ki) hNav1.5 channels, whole-cell patch clamp
Format: cell-based
particulars: determined with 30 µM drug; read-out: Kr, dissociation constant for resting channels
Protocol: The dissociation constant for the resting channels, Kr, of the applied drugs were determined according to [17], [18]: with [drug] being the drug concentration present and Brest being the detected block of resting channels. […] This potential was determined for each cell individually by the above described protocol for steady-state fast inactivation.
property-measured: Kd (µM)
Report the value in µM with no unit label.

Tell me the measured Kd of `CC(C)(c1ccc(O)cc1)c1ccc(O)cc1` , please.
58.6

----------
system-under-test: hNav1.5 (Homo sapiens, UniProt Q14524)
Construct: expressed in transfected cells; host or cells: HEK293
test: Tonic block of hNav1.5 currents, whole-cell patch clamp in transfected HEK293 cells
Type: cell-based
particulars: WT hNav1.5, Vhold −90 mV, test pulse −10 mV at 0.2 Hz, room temperature; read-out: Kd of tonic block (Hill fit)
property-measured: Kd (µM)
Report the value in µM with no unit label.

Tell me the measured Kd of `CC(C)(c1ccc(O)cc1)c1ccc(O)cc1` , please.
25.4

----------
system-under-test: hNav1.5 (Homo sapiens, UniProt Q14524)
Construct: expressed in transfected cells; host or cells: HEK293
test: Tonic block of hNav1.5 currents, whole-cell patch clamp in transfected HEK293 cells
Format: cell-based
particulars: WT hNav1.5, Vhold −120 mV, test pulse −10 mV at 0.2 Hz, room temperature; read-out: Kd of tonic block (Hill fit)
property-measured: Kd (µM)
Report the value in µM with no unit label.

Tell me the measured Kd of `CC(C)(c1ccc(O)cc1)c1ccc(O)cc1` , please.
74

meta.source: paper PMC3407203
